Each entry below carries its reported MIC of example compound, K. pneumoniae KPC-2.
system: K. pneumoniae expressing the Class A carbapenemase KPC-2; assay: microbe, parasite or virus in culture; type: cell-based; settings: in presence of Ceftazidime 8 μg/ml (Examples 1-56)
Counter-ions that a name gives are not always drawn.
measure: MIC of example compound, K. pneumoniae KPC-2

- compound: "CN(C)Cc1ccc(C(=O)N[C@@H](Cc2cccc(C(=O)O)c2O)B(O)O)cc1 [Example 4, formate salt]"
  result: "0.06 µg/mL"
- compound: "Nc1cc(CC(=O)N[C@@H](Cc2cccc(C(=O)O)c2O)B(O)O)ccn1 [Example 45, formate]"
  result: "0.007 µg/mL"
- compound: "Cl.Nc1cc(C(=O)N[C@@H](Cc2cccc(C(=O)O)c2O)B(O)O)ccn1"
  result: "0.06 µg/mL"

Reference source for all entries: patent US20100292185A1
